A collection of compounds and their measured potentiation
- subjectOfTest: Transient receptor potential cation channel subfamily V member 1 (Homo sapiens) (UniProt Q8NER1)
- Sequence (Q8NER1 whole entry, looked up): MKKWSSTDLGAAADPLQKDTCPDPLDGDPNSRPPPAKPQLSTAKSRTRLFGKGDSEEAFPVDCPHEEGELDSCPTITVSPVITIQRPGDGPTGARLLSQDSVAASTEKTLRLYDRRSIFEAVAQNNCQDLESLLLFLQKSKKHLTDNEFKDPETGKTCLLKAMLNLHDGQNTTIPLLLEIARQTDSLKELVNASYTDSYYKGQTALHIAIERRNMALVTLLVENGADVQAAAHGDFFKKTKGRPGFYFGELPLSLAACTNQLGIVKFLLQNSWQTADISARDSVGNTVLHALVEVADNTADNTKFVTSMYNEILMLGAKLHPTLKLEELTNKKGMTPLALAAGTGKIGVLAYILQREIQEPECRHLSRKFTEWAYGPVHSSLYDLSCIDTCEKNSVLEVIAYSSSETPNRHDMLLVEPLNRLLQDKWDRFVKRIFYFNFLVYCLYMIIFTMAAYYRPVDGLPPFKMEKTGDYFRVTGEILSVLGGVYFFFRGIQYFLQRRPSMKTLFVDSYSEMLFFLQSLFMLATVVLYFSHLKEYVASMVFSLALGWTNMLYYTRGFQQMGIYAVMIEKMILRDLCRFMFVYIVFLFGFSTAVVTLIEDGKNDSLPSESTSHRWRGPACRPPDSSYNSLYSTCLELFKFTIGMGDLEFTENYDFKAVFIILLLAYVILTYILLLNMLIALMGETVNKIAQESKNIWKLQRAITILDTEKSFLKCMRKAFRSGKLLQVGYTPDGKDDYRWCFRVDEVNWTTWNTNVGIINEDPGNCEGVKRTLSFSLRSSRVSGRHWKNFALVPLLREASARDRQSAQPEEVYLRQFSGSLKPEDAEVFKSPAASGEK
- runDescription: HTS Assay for Compounds that Act as Potentiators of the Vanilloid Receptor 1
- details: TRPV1-expressing cells, Fluo-8 calcium influx, capsaicin EC20 potentiation; at 8.33 µM; hits give high values
Among all 320,000 compounds or so, about 55 (0.02%) were called active. Not shown: some 3% with an inconclusive outcome. This is one part of a sample in which actives are shown more often than they occur.
Express your answer in %, writing the number without its unit.

Known results for compounds:
In [3]: df
Out[3]:
                                   compound  measuredvalue
0  COc1ccccc1N1CCN(CC(=O)Nc2ccnn2C2CCCC2)CC1            4.7
1  NS(=O)(=O)c1ccc(CNC(=O)c2cccc(S(=O)(=O)N3CCc4ccccc43)c2)cc1           23.8
2  O=C(OCC(=O)N1CCc2ccccc21)C1CCCN1S(=O)(=O)c1ccc(Cl)cc1 (stereo unspecified)          -3.33
3  O=C(Nc1ccc2c(c1)OCO2)C1CC1(Cl)Cl (stereo unspecified)          -2.21
4  COc1ccc(S(=O)(=O)N2CCN(c3ccc(F)cc3)CC2)cc1-c1noc(C)n1          -6.85
5  Cc1ccc(S(=O)(=O)Nc2nc(CN3CCOCC3)nc3sc(C)c(C)c23)cc1           21.7

Item `O=c1ccc(S(=O)(=O)N2CCCC2)cn1Cc1nc(-c2ccccc2)no1` has what recorded potentiation?
-29.3

For `CCN1C(=O)C(=O)N(CC(=O)Nc2cc(C)ccc2C)C1=O` , what is its reported potentiation?
4.41

Given the entry `COc1ccccc1/C=C/C(=O)OCC(=O)NC1CCCCCC1` , report its measured potentiation.
-11.2

What does the record list as potentiation for `O=C(CN1C(=O)NC2(CCCCC2)C1=O)N1CCN(C(=O)c2cccs2)CC1` ?
25.7

Entry COc1ccc(C(C)(C)C)cc1NC(=O)CCN1C(=O)C2CCCCC2C1=O (stereo unspecified) : reported potentiation = ?
-20

What potentiation value was documented for this compound, CC1CC(=O)Nc2ccccc2N1C(=O)COc1ccc2cc(Br)ccc2c1 (stereo unspecified) ?
-0.32

----------
The entries below are paired with their reported potentiation.
- subjectOfTest: Transient receptor potential cation channel subfamily V member 1 (Homo sapiens)
- runDescription: HTS Assay for Compounds that Act as Potentiators of the Vanilloid Receptor 1
- details: TRPV1-expressing cells, Fluo-8 calcium influx, capsaicin EC20 potentiation; at 8.33 µM; hits give high values
The whole screen tested about 320,000 compounds, of which about 55 (0.02%) were called active. Not shown: some 3% with an inconclusive outcome. This excerpt belongs to a sample that is enriched for actives.
Field: numeric (%). Do not append units.

Solved cases (5 shown):
>>> df
                                   molecule  unitdescriptor  measuredvalue
0  O=C(O[C@@H]1[C@H](Cc2ccccc2)NS(=O)(=O)[C@H]2C[C@@H]3C=C[C@]12O3)c1ccccc1Br               %           3.92
1              CC(C)Nc1ncnc2c1nnn2Cc1ccccc1               %          -2.19
2      Cc1c(C(=O)NNC(=O)c2ccncc2)oc2ccccc12               %          -17.2
3        COc1ccccc1NC(=O)COC(=O)COc1ccccc1F               %           3.99
4  CC(C(=O)Nc1ccc(S(=O)(=O)N2CCCC2)cc1)N(C)Cc1ccc(F)cc1 (centres undefined)               %          -18.2

What value of potentiation has been recorded for this entry: `CCOc1ncccc1C(=O)OCC(=O)c1c[nH]c2ccccc12`
3.1

Entry `Cc1ccn2c(=O)nc(SCC(=O)NCc3ccc4c(c3)OCO4)nc2c1` : reported potentiation = ?
-6.94

Which value of potentiation has been reported for Cc1noc(C)c1C(=O)NCC1COc2ccccc2O1 (centres undefined) in the records?
-2.08

Requested field: potentiation. Item: `COc1ccccc1C(=O)NCCC(=O)NC1=NCCS1`
16.5
